I'd be grateful if you could share measured EC50 for these entries.
Molecular target: human GR (Homo sapiens)
Construct: naturally expresses the human GR; endogenous in cells
Sequence (P04150 whole entry): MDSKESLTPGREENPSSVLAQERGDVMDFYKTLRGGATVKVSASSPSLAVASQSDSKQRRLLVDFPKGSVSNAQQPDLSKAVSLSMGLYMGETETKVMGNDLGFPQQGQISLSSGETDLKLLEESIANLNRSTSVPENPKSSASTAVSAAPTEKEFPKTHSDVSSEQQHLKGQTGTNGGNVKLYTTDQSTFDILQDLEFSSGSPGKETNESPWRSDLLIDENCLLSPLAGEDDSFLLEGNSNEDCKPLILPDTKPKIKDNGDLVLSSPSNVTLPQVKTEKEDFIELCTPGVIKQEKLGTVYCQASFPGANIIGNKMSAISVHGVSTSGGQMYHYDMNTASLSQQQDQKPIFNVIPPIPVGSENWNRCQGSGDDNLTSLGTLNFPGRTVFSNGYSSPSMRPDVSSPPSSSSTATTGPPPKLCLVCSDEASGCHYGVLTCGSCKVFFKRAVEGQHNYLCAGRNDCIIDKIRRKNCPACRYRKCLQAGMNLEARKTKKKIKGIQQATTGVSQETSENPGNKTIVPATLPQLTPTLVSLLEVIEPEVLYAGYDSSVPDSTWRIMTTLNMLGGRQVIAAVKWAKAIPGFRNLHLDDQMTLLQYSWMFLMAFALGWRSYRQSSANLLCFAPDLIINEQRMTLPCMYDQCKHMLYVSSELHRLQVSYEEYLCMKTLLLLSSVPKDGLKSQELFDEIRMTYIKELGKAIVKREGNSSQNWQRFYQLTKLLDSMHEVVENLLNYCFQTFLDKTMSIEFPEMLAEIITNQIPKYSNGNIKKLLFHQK
Assay: Transrepression assay (GITAR), TNFα-β-lactamase reporter in U937 cells
Assay type: cell-based
Conditions: U937 cells; IP = inflection point
# unit: nM | format: bare number

Prompt: For N#Cc1ccnc(CC[C@]2(O)CCC3=Cc4c(cnn4-c4ccc(F)cc4)C[C@@]32C2CC2)c1 [Example 35] , write its EC50.
Response: 73

Prompt: Provide only the value of recorded EC50 for NC(=O)c1cc(F)cnc1CC[C@]1(O)CCC2=Cc3c(cnn3-c3ccc(F)cc3)C[C@@]21C1CC1 [Example 4]
Response: 83

Prompt: Query EC50 for NC(=O)CNC(=O)c1cccnc1CC[C@]1(O)CCC2=Cc3c(cnn3-c3ccc(F)cc3)C[C@@]21C1CC1 [Example 43]
Response: 52

Prompt: Using known records, supply EC50 for CC[C@]12Cc3cnn(-c4ccc(F)cc4)c3C=C1CC[C@@]2(O)CCc1ncccc1S(=O)(=O)C(C)C [Example 62]
Response: 12

Prompt: Could you please provide reported EC50 for OCc1ccccc1CC[C@]1(O)CCC2=Cc3c(cnn3-c3ccc(F)cc3)C[C@@]21C1CC1 [Example 2] ? Thanks!
Response: 8

Prompt: Give the value of EC50 reported for the following: CC[C@]12Cc3cnn(-c4cccnc4)c3C=C1CC[C@@]2(O)CCc1ccccc1C#N [Example 5]
Response: 31

Prompt: Quote EC50 reported for CC[C@]12Cc3cnn(-c4ccccc4)c3C=C1CC[C@@]2(O)CCc1cccc(F)c1C#N [Example 15] please.
Response: 114

Prompt: Note down EC50 recorded for CC[C@]12Cc3cnn(-c4ccc(F)cc4)c3C=C1CC[C@@]2(O)CCc1cc(F)ccn1 [Example 18]
Response: 74

Prompt: Report measured EC50; entry is CC[C@]12Cc3cnn(-c4ccccc4)c3C=C1CC[C@@]2(O)CCc1ccc(F)cc1C(N)=O [Example 6]
Response: 143

Prompt: In one line, give reported EC50 of the entry CC[C@]12Cc3cnn(-c4ccc(F)cc4)c3C=C1CC[C@@]2(O)CCc1ncccc1F [Example 17] .
Response: 44

Prompt: Hello, please tell me recorded EC50 for this one: CC[C@]12Cc3cnn(-c4ccc(F)cc4)c3C=C1CC[C@@]2(O)CCc1cc(C)ccn1 [Example 33]
Response: 84

Prompt: Please look at this molecule and report its EC50: CC[C@]12Cc3cnn(-c4cccnc4)c3C=C1CC[C@@]2(O)CCc1ccc(F)cc1C#N [Example 9]
Response: 120

Prompt: Identify the reported EC50 for the following entry. CC[C@]12Cc3cnn(-c4ccc(F)cc4)c3C=C1CC[C@@]2(O)CCc1ccc(F)cc1C(N)=O [Example 8]
Response: 90

Prompt: Please supply the value of reported EC50 for the item NC(=O)c1cc(F)ccc1CC[C@]1(O)CCC2=Cc3c(cnn3-c3ccc(F)cc3)C[C@@]21C1CC1 [Example 39]
Response: 83

Prompt: Supply measured EC50 of CC[C@]12Cc3cnn(-c4ccc(F)cc4)c3C=C1CC[C@@]2(O)CC(O)c1ccccn1 (some centres unmarked) [Example 68] in your reply.
Response: 18

Prompt: Give me measured EC50, please, for this molecule: OC(C[C@]1(O)CCC2=Cc3c(cnn3-c3ccc(F)cc3)C[C@@]21C1CC1)c1ccc(F)cn1 (single isomer, unassigned) [Example 79a]
Response: 167

Prompt: Specify reported EC50 for the molecule shown: CC[C@]12Cc3cnn(-c4ccc(F)cc4)c3C=C1CC[C@@]2(O)CCc1nccc(C2CC2)c1C(=O)OC [Example 41]
Response: 262

Prompt: Read off the recorded EC50 for CC[C@]12Cc3cnn(-c4ccc(F)cc4)c3C=C1CC[C@@]2(O)CC(O)c1ccc(F)cn1 (single isomer, unassigned) [Example 69b]
Response: 94

Prompt: State its EC50 for this molecule: COc1ccnc(CC[C@]2(O)CCC3=Cc4c(cnn4-c4ccc(F)cc4)C[C@@]32C2CC2)c1C(F)C(N)=O (some centres unmarked) [Example 66]
Response: 12

Prompt: Could you please provide reported EC50 for CC[C@]12Cc3cnn(-c4ccc(F)cc4)c3C=C1CC[C@@]2(O)CCc1ncc(F)cc1C(N)=O [Example 53] ? Thanks!
Response: 75

Prompt: Consider the molecule OC(C[C@]1(O)CCC2=Cc3c(cnn3-c3ccc(F)cc3)C[C@@]21C1CC1)c1ccc(F)cn1 (single isomer, unassigned) [Example 79b] and give its recorded EC50.
Response: 282

Prompt: Report EC50 for CC[C@]12Cc3cnn(-c4ccc(F)cc4)c3C=C1CC[C@@]2(O)CCc1nccc(OC)c1CC(N)=O [Example 64]
Response: 72

Prompt: Return EC50 for the following molecule: CC[C@]12Cc3cnn(-c4ccc(F)cc4)c3C=C1CC[C@@]2(O)CCc1ccc(F)cn1 [Example 19]
Response: 263

Prompt: Note down EC50 recorded for N#Cc1c(F)cccc1CC[C@]1(O)CCC2=Cc3c(cnn3-c3ccccc3)C[C@@]21C1CC1 [Example 28]
Response: 122

Prompt: Supply reported EC50 belonging to this molecule: CCS(=O)(=O)c1ccccc1CC[C@]1(O)CCC2=Cc3c(cnn3-c3ccc(F)cc3)C[C@@]21C1CC1 [Example 59]
Response: 74

Prompt: Entry CC[C@]12Cc3cnn(-c4ccccc4)c3C=C1CC[C@@]2(O)CC(O)c1ccccn1 (single isomer, unassigned) [Example 82a] needs its EC50 filled in; supply it.
Response: 217

Prompt: Give recorded EC50. NC(=O)c1ccccc1CC[C@]1(O)CCC2=Cc3c(cnn3-c3ccc(F)cc3)C[C@@]21C1CC1 [Example 23]
Response: 22

Prompt: Retrieve EC50 measured for NC(=O)c1cccnc1CC[C@]1(O)CCC2=Cc3c(cnn3-c3ccc(F)cc3)C[C@@]21C1CC1 [Example 1] and print it.
Response: 55

Prompt: State, in one line, measured EC50 of NC(=O)C(O)c1ccccc1CC[C@]1(O)CCC2=Cc3c(cnn3-c3ccc(F)cc3)C[C@@]21C1CC1 (single isomer, unassigned) [Example 3a]
Response: 85
